test system: EKVX NSCLC; assay: NCI tumour cell line growth inhibition, 48 h
For each entry below, report its GI50 value.

Worked examples, 3 molecules total:
1. Cn1cc(-c2ccc3c(c2)CCN3C(=O)Cc2cccc(C(F)(F)F)c2)c2c(N)ncnc21 :: 8.7 µM
2. Cc1cc(N2CCCC2)nc(N(CCCNc2ccnc3cc(Cl)ccc23)Cc2ccc3c(c2)OCO3)n1 :: 3.16 µM
3. CCN1C(=O)N(CC)C2C1NN=c1s/c(=C3\C(=O)N(C)c4ccccc43)c(=O)n12 (stereo not given) :: 3.25 µM

// input: 2 molecules below; output: GI50 for each
1. CCOC(=O)N1CCN(S(=O)(=O)c2oc(-c3ccc(Cl)cc3)nc2C#N)CC1
2. Clc1ccc2nc(Oc3ccccc3)cnc2c1

result:
1. 9.71 µM
2. > 100 µM

###

test system: UO-31 renal; experiment: NCI tumour cell line growth inhibition, 48 h
Exercise: state measured GI50 for each of the compounds provided.

Would you please look over these solved cases?
1. CCCCCCCCCCCCC(=O)[O-].CCCCCCCCCCCCC(=O)[O-].CCCCCCCCCCCCC(=O)[O-].CCCCCCCCCCCCC(=O)[O-].[Mo+2].[Mo+2] :: 14.7 µM
2. CCN1C(=O)N(CC)C2C1NN=c1s/c(=C3\C(=O)N(C)c4ccccc43)c(=O)n12 (stereo not drawn) :: 1.28 µM

Tested on UO-31 renal: O=C(NN1C(=O)CSC1c1ccc(Cl)cc1)c1[nH]c2ccc(F)cc2c1-c1ccccc1 (stereo not drawn) . Observed GI50: 4.07 µM

###

tested on: K-562 leukemia; experiment: NCI tumour cell line growth inhibition, 48 h
parameter-measured: TGI

1) CCSc1nc(COC(=O)NC)c(COC(=O)NC)n1C :: > 68.1 µM
2) COc1cc(/C=C/C2=NN(c3cccc(S(=O)(=O)O)c3)C3(C2)C(Cl)C(=O)N3c2nc3ccccc3s2)ccc1O (stereo unspecified) :: 61.9 µM
3) CCOC(=O)/C(C#N)=C1\N[C@H](C(=O)OCC)CO1 :: > 100 µM
4) CC(C)CNC(=O)Cn1c2c(c3ccccc31)CCCC2 :: > 100 µM

For every item in the list below, what is its measured TGI?
1. O=C1c2ccccc2C(=O)C1C(c1ccc([N+](=O)[O-])cc1)C1C(=O)c2ccccc2C1=O
2. O=[N+]([O-])c1ccc(N=NN2CCCC2)cc1

result:
1. > 100 µM
2. > 100 µM

###

system: UO-31 renal; test: NCI tumour cell line growth inhibition, 48 h; in the data active means GI50 below about 0.43 µM; inactive means the rest
Classes to choose from: 1 = active, -1 = inactive

Solved entries (count: 3):
1. Cn1cc(-c2ccc(CNc3cc(-c4cnc5cc(OCCCN6CCCC6)ccn45)ncn3)cc2)cn1 :: -1
2. COc1cc2cc(Oc3ccc(NC(=O)c4ccc(Cl)c(C(F)(F)F)c4)cc3)c(C)nc2cc1OC :: -1
3. COc1ccc2c(c1)nc(N)c1c3cccnc3cn21 :: 1

query: Please state the recorded outcome for this molecule: C=C[C@]1(C)C=C2C(=O)[C@@]3(O)OC[C@@]4(CCCC(C)(C)C43O)C2(O)C(O)C1 (stereo not given in full)
result: -1

query: Which outcome was assigned to C=C(C)CCC(C)N1CCC(N2CCC(C(=O)NCCc3ccccc3)CC2)CC1 (stereo not given) in this test?
result: -1

query: Test call, this molecule: "CCOC(=O)c1c(C)n(Cc2ccc(Cl)cc2Cl)c2c1cc1oc(=O)c(=O)n3c(Cc4ccccc4)nc2c13"
result: -1

query: What classification did "CCOC(=O)N1CCN(S(=O)(=O)c2oc(-c3ccc(Cl)cc3)nc2C#N)CC1" end up with in this test?
result: -1

FYI, the data here is from PubChem BioAssay (NCI).
